# protocol.description: Metabolic stability in human liver microsomes assessed as compound remaining after 30 mins
# Assay type: ADME, Microsome
# details: read-out: Stability
readout.type: remaining at 0.5 h (%)
// note: answer is a bare numeric in %

Enquiry: Looking for the measured remaining at 0.5 h of CS(=O)(=O)c1ccc(C[C@H](NC(=O)c2c(Cl)cc3c(c2Cl)CCN(C(=O)c2ccc4ccoc4c2)C3)C(=O)O)o1 , can you help?
Return: 65

Enquiry: Looking for the measured remaining at 0.5 h of CS(=O)(=O)c1cccc(C[C@H](NC(=O)c2c(Cl)cc3c(c2Cl)CCN(C(=O)c2ccc4ccoc4c2)C3)C(=O)O)c1 , can you help?
Return: 71

---

For each of the compounds below, state its clearance.
# protocol.description: Clearance in Sprague-Dawley rat at 5 mg/kg, iv
# Type: ADME, organism-based
# Design: dose 5 mg/kg, route intravenous
# details: in vivo
// note: answer is a bare numeric in mL/min/kg

Enquiry: Looking for the measured clearance of CS(=O)(=O)c1ccc(C[C@H](NC(=O)c2c(Cl)cc3c(c2Cl)CCN(C(=O)c2ccc4ccoc4c2)C3)C(=O)O)o1 , can you help?
Return: 60

Enquiry: Looking for the measured clearance of CS(=O)(=O)c1cncc(C[C@H](NC(=O)c2c(Cl)cc3c(c2Cl)CCN(C(=O)c2ccc4ccoc4c2)C3)C(=O)O)c1 , can you help?
Return: 73.5

Enquiry: Looking for the measured clearance of CP(C)(=O)c1cccc(C[C@H](NC(=O)c2c(Cl)cc3c(c2Cl)CCN(C(=O)c2ccc4ccoc4c2)C3)C(=O)O)c1 , can you help?
Return: 37

Enquiry: Looking for the measured clearance of CS(=O)(=O)c1ccc(C[C@H](NC(=O)c2c(Cl)cc3c(c2Cl)CCN(C(=O)c2ccc(Cl)cc2)C3)C(=O)O)o1 , can you help?
Return: 74.3

---

# system.tested: Intercellular adhesion molecule (ICAM-1), Integrin alpha-L/beta-2 (Homo sapiens, UniProt P05107+P05362+P20701)
# Sequence (P20701 whole entry): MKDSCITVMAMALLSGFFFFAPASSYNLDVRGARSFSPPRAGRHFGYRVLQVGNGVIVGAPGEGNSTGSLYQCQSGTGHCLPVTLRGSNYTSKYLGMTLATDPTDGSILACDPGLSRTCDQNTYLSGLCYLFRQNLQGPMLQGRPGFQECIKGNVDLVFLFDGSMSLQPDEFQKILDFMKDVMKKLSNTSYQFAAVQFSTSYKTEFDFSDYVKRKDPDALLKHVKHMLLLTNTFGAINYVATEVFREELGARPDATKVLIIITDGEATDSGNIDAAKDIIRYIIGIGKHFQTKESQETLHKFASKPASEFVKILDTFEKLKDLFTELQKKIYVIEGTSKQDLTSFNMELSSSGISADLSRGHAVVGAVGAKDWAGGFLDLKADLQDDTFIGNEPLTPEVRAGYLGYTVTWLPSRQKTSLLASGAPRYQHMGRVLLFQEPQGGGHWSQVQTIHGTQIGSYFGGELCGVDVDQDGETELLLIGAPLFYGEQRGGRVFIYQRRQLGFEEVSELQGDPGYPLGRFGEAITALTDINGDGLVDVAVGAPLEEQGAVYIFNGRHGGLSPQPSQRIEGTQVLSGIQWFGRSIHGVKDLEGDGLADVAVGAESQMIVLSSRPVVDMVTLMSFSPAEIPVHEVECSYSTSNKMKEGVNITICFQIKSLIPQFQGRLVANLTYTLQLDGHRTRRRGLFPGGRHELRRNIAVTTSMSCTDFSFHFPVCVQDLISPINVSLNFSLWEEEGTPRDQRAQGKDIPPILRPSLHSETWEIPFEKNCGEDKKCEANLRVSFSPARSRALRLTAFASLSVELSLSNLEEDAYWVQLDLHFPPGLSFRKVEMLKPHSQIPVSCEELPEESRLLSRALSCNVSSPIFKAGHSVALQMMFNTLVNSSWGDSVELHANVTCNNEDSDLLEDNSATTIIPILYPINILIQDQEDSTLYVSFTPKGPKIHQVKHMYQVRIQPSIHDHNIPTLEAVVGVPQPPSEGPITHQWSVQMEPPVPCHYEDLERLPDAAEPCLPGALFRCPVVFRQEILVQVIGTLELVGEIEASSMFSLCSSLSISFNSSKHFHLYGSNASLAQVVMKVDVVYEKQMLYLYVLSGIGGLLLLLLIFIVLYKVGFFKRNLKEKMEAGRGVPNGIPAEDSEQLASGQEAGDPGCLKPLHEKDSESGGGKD
# Sequence (P05362 whole entry): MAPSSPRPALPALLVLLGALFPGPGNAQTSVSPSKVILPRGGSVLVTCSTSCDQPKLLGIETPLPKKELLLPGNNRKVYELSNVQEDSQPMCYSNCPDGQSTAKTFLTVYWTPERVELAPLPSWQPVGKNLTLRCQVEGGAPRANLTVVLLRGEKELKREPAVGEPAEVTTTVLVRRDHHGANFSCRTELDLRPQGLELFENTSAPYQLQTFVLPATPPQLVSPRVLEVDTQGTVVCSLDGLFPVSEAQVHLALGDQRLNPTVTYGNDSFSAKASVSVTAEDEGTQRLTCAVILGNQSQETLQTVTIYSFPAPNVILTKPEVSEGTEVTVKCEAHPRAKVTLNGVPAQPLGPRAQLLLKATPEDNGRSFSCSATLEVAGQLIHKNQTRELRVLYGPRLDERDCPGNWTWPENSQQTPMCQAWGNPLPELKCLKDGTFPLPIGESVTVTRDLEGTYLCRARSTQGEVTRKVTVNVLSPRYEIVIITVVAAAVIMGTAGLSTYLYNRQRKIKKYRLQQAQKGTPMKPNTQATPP
# Sequence (P05107 whole entry): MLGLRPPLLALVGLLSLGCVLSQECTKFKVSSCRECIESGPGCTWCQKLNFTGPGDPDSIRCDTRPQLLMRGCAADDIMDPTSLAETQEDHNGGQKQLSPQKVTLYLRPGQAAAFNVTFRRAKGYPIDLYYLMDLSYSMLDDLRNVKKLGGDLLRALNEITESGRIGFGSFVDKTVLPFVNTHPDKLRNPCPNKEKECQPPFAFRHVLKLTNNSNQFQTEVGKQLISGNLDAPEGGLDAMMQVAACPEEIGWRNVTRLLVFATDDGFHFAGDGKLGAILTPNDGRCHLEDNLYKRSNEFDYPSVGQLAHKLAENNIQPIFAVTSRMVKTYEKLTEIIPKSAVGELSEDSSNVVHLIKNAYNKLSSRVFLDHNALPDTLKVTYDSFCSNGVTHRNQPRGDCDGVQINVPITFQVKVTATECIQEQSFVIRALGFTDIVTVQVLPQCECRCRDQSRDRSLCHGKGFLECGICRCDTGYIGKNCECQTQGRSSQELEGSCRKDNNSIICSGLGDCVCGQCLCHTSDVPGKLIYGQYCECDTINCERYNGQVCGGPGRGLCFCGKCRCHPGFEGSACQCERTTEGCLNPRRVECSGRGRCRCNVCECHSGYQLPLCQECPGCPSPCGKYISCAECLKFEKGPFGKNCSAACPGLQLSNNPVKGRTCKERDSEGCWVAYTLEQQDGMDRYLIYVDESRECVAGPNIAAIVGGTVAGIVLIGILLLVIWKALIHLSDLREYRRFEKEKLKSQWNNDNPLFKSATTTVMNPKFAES
# protocol.description: Antagonist activity at LFA-1/ICAM-1 in human HuT-78 T-cells assessed as inhibition of cell adhesion after 1 hr by p-nitrophenyl n-acetyl-beta-D-glucosaminide method
# Assay type: functional, cell-based, HuT78
For each of the compounds below, state its IC50.
// note: answer is a bare numeric in nM

Enquiry: Looking for the measured IC50 of NS(=O)(=O)c1cccc(C[C@H](NC(=O)c2c(Cl)cc3c(c2Cl)CCN(C(=O)c2ccc4ccoc4c2)C3)C(=O)O)c1 , can you help?
Return: 4

Enquiry: Looking for the measured IC50 of CS(=O)(=O)c1cc(F)cc(C[C@H](NC(=O)c2c(Cl)cc3c(c2Cl)CCN(C(=O)c2ccc4ccoc4c2)C3)C(=O)O)c1 , can you help?
Return: 10

Enquiry: Looking for the measured IC50 of CS(=O)(=O)c1cc(C[C@H](NC(=O)c2c(Cl)cc3c(c2Cl)CCN(C(=O)c2ccc4ccoc4c2)C3)C(=O)O)ccc1Cl , can you help?
Return: 120

Enquiry: Looking for the measured IC50 of CC(=O)c1cccc(C[C@H](NC(=O)c2c(Cl)cc3c(c2Cl)CCN(C(=O)c2ccc4ccoc4c2)C3)C(=O)O)c1 , can you help?
Return: 12

Enquiry: Looking for the measured IC50 of C[C@H](O)c1cccc(C[C@H](NC(=O)c2c(Cl)cc3c(c2Cl)CCN(C(=O)c2ccc4ccoc4c2)C3)C(=O)O)c1 , can you help?
Return: 14

Enquiry: Looking for the measured IC50 of CN(C)S(=O)(=O)c1cccc(C[C@H](NC(=O)c2c(Cl)cc3c(c2Cl)CCN(C(=O)c2ccc4ccoc4c2)C3)C(=O)O)c1 , can you help?
Return: 10
